Sequence of the target: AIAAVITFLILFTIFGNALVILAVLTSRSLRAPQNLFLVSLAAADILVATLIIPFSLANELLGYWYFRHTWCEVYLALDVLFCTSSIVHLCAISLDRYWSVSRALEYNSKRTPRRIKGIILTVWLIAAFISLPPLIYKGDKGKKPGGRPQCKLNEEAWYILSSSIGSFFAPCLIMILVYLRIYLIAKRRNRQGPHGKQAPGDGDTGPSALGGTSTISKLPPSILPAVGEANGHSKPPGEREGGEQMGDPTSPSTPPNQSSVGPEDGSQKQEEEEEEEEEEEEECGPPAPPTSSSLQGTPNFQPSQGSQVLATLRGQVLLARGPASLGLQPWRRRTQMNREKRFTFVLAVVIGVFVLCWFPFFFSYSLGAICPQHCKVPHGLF
Quantity: Ki (nM)
Numbers only; they are read as nM.

Lab note: NCC(O)c1ccc(O)c(O)c1 (stereo not drawn) [Noradrenaline,(+)] gave Ki of 28.2
